Molecular target: T1, PUF4 RNA-binding domain (Saccharomyces cerevisiae, UniProt P25339 537-888)
T1 sequence: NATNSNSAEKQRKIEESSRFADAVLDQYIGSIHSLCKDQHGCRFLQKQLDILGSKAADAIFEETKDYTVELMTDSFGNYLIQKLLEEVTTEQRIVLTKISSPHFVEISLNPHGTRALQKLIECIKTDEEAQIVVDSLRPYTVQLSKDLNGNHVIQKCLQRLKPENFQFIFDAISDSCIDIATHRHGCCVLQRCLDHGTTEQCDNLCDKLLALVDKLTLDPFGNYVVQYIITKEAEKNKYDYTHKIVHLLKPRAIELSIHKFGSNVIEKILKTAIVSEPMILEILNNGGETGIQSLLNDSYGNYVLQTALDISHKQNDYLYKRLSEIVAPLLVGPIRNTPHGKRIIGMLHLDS
Assay: Mg; RNA-MaP; 20 mM Na-HEPES pH 7.4, 30 mM KOAc, 0.75 mM MgCl2, 0.1% Tween-20, 5% glycerol, 0.1 mg/mL BSA, 2 mM DTT; 25 C; 0.0125-409.6 nM protein
Details: tags: N-His6-TEV cleaved; C-SNAP kept, Cy3B-labelled; label: tethered on chip by stalled RNA polymerase
Provide the reported log10(Kd) of each item.
Heads up, the numbers here are log10 of Kd in nM units.

The examples below pair each entry with its known result.
According to the records, this binder Ic_S2_P4E.1_K4.1_C4.1_H4.1_A4.1_[T5C]_[A6G]_[T7C]_F4.1_[A9C]_T4.1 (ssRNA) RNA: UUUGAUUAAUAUGAUAUCGUUCUUUCUUGUACGCUCUUCUUUCUCGAUAUCAUAUUAAUCUUU displays log10(Kd) of 1.45

Looking up UCUCUUUGUAAUUACGUCUCUU (ssRNA) [Ic_S1_P5E.1_K5.1_C5.1_H5.1_A5.1_[T5A]_[A7T]_F5.1_[T8A]_[T9C]_[A10G]_T5.1] , I found its log10(Kd) recorded as 2.79

binder Id_ii_S4_P3E.3_K3.2_C3.2_[T-1G]_H3.2_A3.1_F3.1_T3.2_[T9C]_[A10C] (ssRNA) RNA: UUUGACAACUGAUCGUUCUUUCUCGUAUAUAUACCUUCUUUCUCGAUCAGUUGUCUUU , log10(Kd) observed: 2.99

log10(Kd) recorded for this binder, UCUCUUCUCCUUGUAUAUAUAUCUCUU (ssRNA) [Ie_S1_P3E.2_K3.1_C3.2_[+-2TCC]_H3.1_A3.1_F3.1_T3.2] , is 0.64

// below: log10(Kd) requested for another binder
The value of log10(Kd) measured for the binder Ib_S2_P4E.1_K4.1_C4.1_H4.1_[A4G]_A4.1_F4.1_[A9C]_T4.1 (ssRNA) RNA: UUUGAUUAAUAUGAUAUCGUUCUUUCUUGUGUAUUCUUCUUUCUCGAUAUCAUAUUAAUCUUU turned out to be 1.08
